Could you please report measured cAMP Emax for the items listed next?
tgt: human glucagon-like peptide-1 (GLP-1) receptor (human) (UniProt P43220)
assay-overview: cell-based or functional assay
Write the quantity with the unit trailing the number.

Some solved entries appear below for comparison.
binder	readout-label	measured-result
YXEGTXTSDXSIXLDXIAQXEFIXXLIKGGPSSGAPPPSK (Y-Aib-EGT-αMeF(2F)-TSD-4Pal-SI-αMeL-LD-Orn-IAQ-Aib-EFI-(D-Glu)-αMeY-LIK((2-[2-(2-Amino-ethoxy)-ethoxy]-acetyl)2-CO-(CH2)12-CO2H)GGPSSGAPPPSK((2-[2-(2-Amino-ethoxy)-ethoxy]-acetyl)2-CO-(CH2)12-CO2H)-NH2) [Example 223]	cAMP Emax	94%
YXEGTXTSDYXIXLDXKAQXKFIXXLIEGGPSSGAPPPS (Y-Aib-EGT-αMeF(2F)-TSDY-Aib-I-αMeL-LD-Orn-K((2-[2-(2-Amino-ethoxy)-ethoxy]-acetyl)2-(γ-Glu)-CO-(CH2)12-CO2H)AQ-Aib-K((2-[2-(2-Amino-ethoxy)-ethoxy]-acetyl)2-(γ-Glu)-CO-(CH2)12-CO2H)FI-(D-Glu)-αMeY-LIEGGPSSGAPPPS-NH2) [Example 230]	cAMP Emax	90.3%
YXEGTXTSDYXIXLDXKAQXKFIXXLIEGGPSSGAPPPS (Y-Aib-EGT-αMeF(2F)-TSDY-Aib-I-αMeL-LD-Orn-K((2-[2-(2-Amino-ethoxy)-ethoxy]-acetyl)2-(γ-Glu)-(10-(4-carboxyphenoxy)decanoyl))AQ-Aib-K((2-[2-(2-Amino-ethoxy)-ethoxy]-acetyl)2-(γ-Glu)-(10-(4-carboxyphenoxy)decanoyl))FI-(D-Glu)-αMeY-LIEGGPSSGAPPPS-NH2) [Example 236]	cAMP Emax	96.5%
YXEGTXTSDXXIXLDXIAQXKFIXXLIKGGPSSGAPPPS (Y-Aib-EGT-αMeF(2F)-TSD-4Pal-Aib-I-αMeL-LD-Orn-IAQ-Aib-K((2-[2-(2-Amino-ethoxy)-ethoxy]-acetyl)2-(γ-Glu)-CO-(CH2)12-CO2H)FI-(D-Glu)-αMeY-LIK((2-[2-(2-Amino-ethoxy)-ethoxy]-acetyl)2-(γ-Glu)-CO-(CH2)12-CO2H)GGPSSGAPPPS-NH2) [Example 220]	cAMP Emax	87.6%
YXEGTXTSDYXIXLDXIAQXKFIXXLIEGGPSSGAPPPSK (Y-Aib-EGT-aMeF(2F)-TSDY-Aib-I-aMeL-LD-Orn-IAQ-Aib-K((2-[2-(2-Amino-ethoxy)-ethoxy]-acetyl)2-(γ-Glu)-CO-(CH2)12-CO2H)FI-(D-Glu)-αMeY-LIEGGPSSGAPPPSK((2-[2-(2-Amino-ethoxy)-ethoxy]-acetyl)2-(γ-Glu)-CO-(CH2)12-CO2H)-NH2) [Example 235]	cAMP Emax	104%

# map each binder to its cAMP Emax
1. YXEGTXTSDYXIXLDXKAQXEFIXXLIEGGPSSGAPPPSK (Y-Aib-EGT-αMeF(2F)-TSDY-Aib-I-αMeL-LD-Orn-K((2-[2-(2-Amino-ethoxy)-ethoxy]-acetyl)2-(γ-Glu)-(10-(4-carboxyphenoxy)decanoyl))AQ-Aib-EFI-(D-Glu)-αMeY-LIEGGPSSGAPPPSK((2-[2-(2-Amino-ethoxy)-ethoxy]-acetyl)2-(γ-Glu)-(10-(4-carboxyphenoxy)decanoyl))-NH2) [Example 238]
2. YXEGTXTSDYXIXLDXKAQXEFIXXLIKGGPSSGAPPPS (Y-Aib-EGT-αMeF(2F)-TSDY-Aib-I-αMeL-LD-Orn-K((2-[2-(2-Amino-ethoxy)-ethoxy]-acetyl)2-(γ-Glu)-(10-(4-carboxyphenoxy)decanoyl))AQ-Aib-EFI-(D-Glu)-αMeY-LIK((2-[2-(2-Amino-ethoxy)-ethoxy]-acetyl)2-(γ-Glu)-(10-(4-carboxyphenoxy)decanoyl))GGPSSGAPPPS-NH2) [Example 237]
3. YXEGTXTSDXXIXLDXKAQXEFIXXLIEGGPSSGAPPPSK (Y-Aib-EGT-αMeF(2F)-TSD-4Pal-Aib-I-αMeL-LD-Orn-K((2-[2-(2-Amino-ethoxy)-ethoxy]-acetyl)2-(γ-Glu)-(10-(4-carboxyphenoxy)decanoyl))AQ-Aib-EFI-(D-Glu)-αMeY-LIEGGPSSGAPPPSK((2-[2-(2-Amino-ethoxy)-ethoxy]-acetyl)2-(γ-Glu)-(10-(4-carboxyphenoxy)decanoyl))-NH2) [Example 245]
4. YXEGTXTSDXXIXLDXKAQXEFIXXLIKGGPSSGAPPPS (Y-Aib-EGT-αMeF(2F)-TSD-4Pal-Aib-I-αMeL-LD-Orn-K((2-[2-(2-Amino-ethoxy)-ethoxy]-acetyl)2-(γ-Glu)-(10-(4-carboxyphenoxy)decanoyl))AQ-Aib-EFI-(D-Glu)-αMeY-LIK((2-[2-(2-Amino-ethoxy)-ethoxy]-acetyl)2-(γ-Glu)-(10-(4-carboxyphenoxy)decanoyl))GGPSSGAPPPS-NH2) [Example 244]
5. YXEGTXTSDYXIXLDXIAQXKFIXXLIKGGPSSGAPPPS (Y-Aib-EGT-αMeF(2F)-TSDY-Aib-I-αMeL-LD-Orn-IAQ-Aib-K((2-[2-(2-Amino-ethoxy)-ethoxy]-acetyl)2-(γ-Glu)-CO-(CH2)12-CO2H)Fl-(D-Glu)-αMeY-LIK((2-[2-(2-Amino-ethoxy)-ethoxy]-acetyl)2-(γ-Glu)-CO-(CH2)12-CO2H)GGPSSGAPPPS-NH2) [Example 234]
6. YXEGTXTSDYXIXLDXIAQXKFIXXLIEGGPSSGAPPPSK (Y-Aib-EGT-αMeF(2F)-TSDY-Aib-I-αMeL-LD-Orn-IAQ-Aib-K((2-[2-(2-Amino-ethoxy)-ethoxy]-acetyl)2-(γ-Glu)-(10-(4-carboxyphenoxy)decanoyl))FI-(D-Glu)-αMeY-LIEGGPSSGAPPPSK((2-[2-(2-Amino-ethoxy)-ethoxy]-acetyl)2-(γ-Glu)-(10-(4-carboxyphenoxy)decanoyl))-NH2) [Example 241]
7. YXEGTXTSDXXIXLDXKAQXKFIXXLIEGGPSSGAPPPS (Y-Aib-EGT-αMeF(2F)-TSD-4Pal-Aib-I-αMeL-LD-Orn-K((2-[2-(2-Amino-ethoxy)-ethoxy]-acetyl)2-(γ-Glu)-(10-(4-carboxyphenoxy)decanoyl))AQ-Aib-K((2-[2-(2-Amino-ethoxy)-ethoxy]-acetyl)2-(γ-Glu)-(10-(4-carboxyphenoxy)decanoyl))FI-(D-Glu)-αMeY-LIEGGPSSGAPPPS-NH2) [Example 243]

Response:
["107%", "102%", "88.9%", "104%", "112%", "91%", "93.2%"]

Request: Supply recorded cAMP Emax for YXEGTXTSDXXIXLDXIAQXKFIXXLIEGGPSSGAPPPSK (Y-Aib-EGT-αMeF(2F)-TSD-4Pal-Aib-I-αMeL-LD-Orn-IAQ-Aib-K(2-[2-(2-Amino-ethoxy)-ethoxy]-acetyl)2-(γ-Glu)-(11-(4-carboxyphenoxy)undecanoyl)FI-(D-Glu)-αMeY-LIEGGPSSGAPPPSK((2-[2-(2-Amino-ethoxy)-ethoxy]-acetyl)2-(γ-Glu)-(11-(4-carboxyphenoxy)undecanoyl)-NH2)) [Example 242] here.
Response: 96.3%
